I'd appreciate it if you could supply IC50 values for the items below.
ASSAY TARGET: human full-length MKNK1 (Homo sapiens, UniProt Q9BUB5, T385D)
Sequence (Q9BUB5 1-424 isoform Q9BUB5-2 T344D): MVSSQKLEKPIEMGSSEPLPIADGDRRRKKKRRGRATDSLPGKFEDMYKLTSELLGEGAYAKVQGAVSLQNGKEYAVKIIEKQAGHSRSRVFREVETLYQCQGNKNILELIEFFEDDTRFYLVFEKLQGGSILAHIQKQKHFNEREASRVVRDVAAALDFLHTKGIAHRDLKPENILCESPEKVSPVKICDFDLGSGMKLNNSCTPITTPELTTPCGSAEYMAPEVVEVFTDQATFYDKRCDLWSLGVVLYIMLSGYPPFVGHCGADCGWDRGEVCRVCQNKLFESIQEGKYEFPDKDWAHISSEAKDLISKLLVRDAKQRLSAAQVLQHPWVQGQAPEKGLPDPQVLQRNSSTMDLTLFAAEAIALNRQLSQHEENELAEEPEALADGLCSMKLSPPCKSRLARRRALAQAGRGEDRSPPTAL
ASSAY NAME: MKNK1 kinase high ATP assay (TR-FRET)
EXPERIMENTAL CONDITIONS: high ATP (2 mM final), 15 min preincubation with enzyme, GST-MKNK1 (T344D)
Protocol: MKNK1-inhibitory activity at high ATP of compounds of the present invention after their preincubation with MKNK1 was quantified employing the TR-FRET-based MKNK1 high ATP assay as described in the following paragraphs. […]
The answer is to be given in nM; state only the numeric part.

Exercise: # lookup: IC50 of COCCN(CCOC)C(=O)[C@H]1CCc2c(sc3ncnc(Nc4cc5cn[nH]c5cn4)c23)C1 [Example 56]
Solution: 8.1

Exercise: Please answer likewise for COc1nc2[nH]ncc2cc1Nc1ncnc2sc3c(c12)CC[C@H](C(=O)N1CCN(C)CC1)C3 [Example 42]
Solution: 2.1

Exercise: Please answer likewise for O=C(c1cc2c(Nc3cc4cn[nH]c4cn3)ncnc2[nH]1)N1CCOCC1 [Example 21]
Solution: 4.2

Exercise: Please answer likewise for O=C([C@H]1CCc2c(sc3ncnc(Nc4cc5cn[nH]c5nc4O)c23)C1)N1C[C@@H]2C[C@H]1CO2 [Example 115]
Solution: 6.9

====

ASSAY TARGET: human full-length MKNK1 (Homo sapiens, UniProt Q9BUB5, T385D)
ASSAY NAME: MKNK1 kinase high ATP assay (TR-FRET)
EXPERIMENTAL CONDITIONS: high ATP (2 mM final), 15 min preincubation with enzyme, GST-MKNK1 (T344D)
REPORTED ENDPOINT: IC50 (nM)
The answer is to be given in nM; state only the numeric part.

Exercise: # lookup: IC50 of CN1CCN(C(=O)[C@H]2CCc3c(sc4ncnc(Nc5cc6cn[nH]c6cn5)c34)C2)CC1
Solution: 5.2

Exercise: Please answer likewise for COCCN(C)C(=O)[C@H]1CCc2c(sc3ncnc(Nc4cc5cn[nH]c5cn4)c23)C1
Solution: 15

Exercise: Please answer likewise for CCN(C(=O)[C@H]1CCc2c(sc3ncnc(Nc4cc5cn[nH]c5cn4)c23)C1)C(C)C
Solution: 4.9

Exercise: Please answer likewise for O=C(c1[nH]c2ncnc(Nc3cnc4[nH]ncc4c3)c2c1Br)N1CCCCC1
Solution: 120

====

I'd appreciate it if you could supply pIC50 values for the items below.
ASSAY TARGET: human full-length MKNK1 (Homo sapiens, UniProt Q9BUB5, T385D)
ASSAY NAME: MKNK1 kinase high ATP assay (TR-FRET)
EXPERIMENTAL CONDITIONS: high ATP (2 mM final), 15 min preincubation with enzyme, GST-MKNK1 (T344D)
# pIC50: negative log10 of molar concentration; output just the value

Exercise: # lookup: pIC50 of CN(C)C(=O)C1CCc2[nH]c3ncnc(Nc4cc5cn[nH]c5cn4)c3c2C1 (racemic) [Example 31]
Solution: 7.23

Exercise: Please answer likewise for CN(C)CCNC(=O)c1cc2c(Nc3cc4cn[nH]c4cn3)ncnc2[nH]1 [Example 22]
Solution: 8.27

Exercise: Please answer likewise for CC(C)N(C)C(=O)[C@H]1CCc2c(sc3ncnc(Nc4cc5cn[nH]c5nc4O)c23)C1 [Example 114]
Solution: 8.34

Exercise: Please answer likewise for CN1CCN(C(=O)C2CCc3[nH]c4ncnc(Nc5cnc6[nH]ncc6c5)c4c3C2)CC1 (racemic) [Example 32]
Solution: 7.31

Exercise: Please answer likewise for CCCN(C)C(=O)[C@H]1CCc2c(sc3ncnc(Nc4cnc5[nH]ncc5c4)c23)C1 [Example 93]
Solution: 7.87

Exercise: Please answer likewise for CCN(C)C(=O)[C@H]1CCc2c(sc3ncnc(Nc4cc5cn[nH]c5nc4O)c23)C1 [Example 112]
Solution: 8.34

Exercise: Please answer likewise for CCc1c[nH]c2ncnc(Nc3cc4cn[nH]c4cn3)c12 [Example 6]
Solution: 8.14

Exercise: Please answer likewise for CN1CCN(C(=O)[C@H]2CCc3c(sc4ncnc(Nc5cnc6[nH]ncc6c5)c34)C2)CC1 [Example 106]
Solution: 7.69

Exercise: Please answer likewise for CCCN(CCOC)C(=O)[C@H]1CCc2c(sc3ncnc(Nc4cc5cn[nH]c5nc4O)c23)C1 [Example 50]
Solution: 8.59

Exercise: Please answer likewise for N#CC1CN(C(=O)[C@H]2CCc3c(sc4ncnc(Nc5cc6cn[nH]c6cn5)c34)C2)C1 [Example 82]
Solution: 8.49
